target: T1, human c-Met (Sino Biological) (human, UniProt P08581 25-932, limits assumed); assay: SPR (Biacore T200), IgG captured on Protein A CM5 chip, c-Met 0.15-2 nM as analyte
T1 construct: Analyte in the Biacore assay; also called antigen (c-Met); printed as "human c-Met antibody (Sino Biological, Beijing, China)"
T1 sequence (P08581 25-932 limits assumed): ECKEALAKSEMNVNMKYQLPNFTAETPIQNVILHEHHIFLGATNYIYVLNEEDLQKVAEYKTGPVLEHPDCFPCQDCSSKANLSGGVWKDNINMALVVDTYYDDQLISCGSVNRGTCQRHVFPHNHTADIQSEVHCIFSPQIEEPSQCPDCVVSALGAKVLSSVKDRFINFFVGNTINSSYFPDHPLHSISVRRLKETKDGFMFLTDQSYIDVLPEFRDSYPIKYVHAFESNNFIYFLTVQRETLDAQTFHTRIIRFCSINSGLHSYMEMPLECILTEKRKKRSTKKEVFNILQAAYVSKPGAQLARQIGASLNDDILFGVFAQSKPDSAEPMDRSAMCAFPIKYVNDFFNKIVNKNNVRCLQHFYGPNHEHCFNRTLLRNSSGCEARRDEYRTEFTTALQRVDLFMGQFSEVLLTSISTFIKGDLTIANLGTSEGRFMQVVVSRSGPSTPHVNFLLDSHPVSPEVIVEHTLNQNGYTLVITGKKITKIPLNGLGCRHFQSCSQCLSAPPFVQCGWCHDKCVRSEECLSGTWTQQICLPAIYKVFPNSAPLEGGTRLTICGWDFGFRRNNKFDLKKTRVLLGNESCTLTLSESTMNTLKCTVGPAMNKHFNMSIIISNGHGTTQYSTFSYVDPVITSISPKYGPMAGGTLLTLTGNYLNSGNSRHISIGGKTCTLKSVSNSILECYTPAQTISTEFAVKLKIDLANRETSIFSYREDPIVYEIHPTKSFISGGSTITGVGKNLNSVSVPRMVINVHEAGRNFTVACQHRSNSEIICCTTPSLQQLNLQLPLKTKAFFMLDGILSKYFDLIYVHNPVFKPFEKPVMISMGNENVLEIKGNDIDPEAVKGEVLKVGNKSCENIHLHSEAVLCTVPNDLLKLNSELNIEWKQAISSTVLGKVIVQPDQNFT
endpoint_name: Relative KD to VMDO2 VH0/Vk0
Give your answer as a number; write no unit.

Guide cases for Relative KD to VMDO2 VH0/Vk0, answers given:
VH5/Vk0 (antibody, IgG1, V domains shown, Full IgG1/kappa expressed in HEK 293 EBNA cells) VH: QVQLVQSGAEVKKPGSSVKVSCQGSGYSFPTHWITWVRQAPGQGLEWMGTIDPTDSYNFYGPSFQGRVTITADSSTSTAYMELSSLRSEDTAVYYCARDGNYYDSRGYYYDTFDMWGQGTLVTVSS VL: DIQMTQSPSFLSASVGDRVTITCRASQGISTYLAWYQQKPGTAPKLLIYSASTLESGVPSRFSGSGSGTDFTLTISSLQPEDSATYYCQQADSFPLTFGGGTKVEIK : 0.68
VH2/Vk5 (antibody, IgG1, V domains shown, Full IgG1/kappa expressed in HEK 293 EBNA cells) VH: EVQLVQSGAEVKKPGESLKISCKGSGYSFPTHWITWVRQMPGKGLEWMGTIDPTDSYNFYGPSFQGQVTISADKSISTAYLQWSSLKASDTAMYYCARDGNYYDSRGYYYDTFDMWGQGTLVTVSS VL: EIVLTQSPGTLSLSPGERATLSCRASQGISTYLAWYQQKPGQAPRLLIYSASTLESGIPDRFSGSGSGTDFTLTISRLEPEDFATYYCQQADSFPLTFGGGTKVEIK : 1.32
VH4/Vk2 (antibody, IgG1, V domains shown, Full IgG1/kappa expressed in HEK 293 EBNA cells) VH: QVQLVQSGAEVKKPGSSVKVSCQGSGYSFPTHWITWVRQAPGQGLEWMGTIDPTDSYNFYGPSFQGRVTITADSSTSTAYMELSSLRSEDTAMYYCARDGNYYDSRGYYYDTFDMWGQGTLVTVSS VL: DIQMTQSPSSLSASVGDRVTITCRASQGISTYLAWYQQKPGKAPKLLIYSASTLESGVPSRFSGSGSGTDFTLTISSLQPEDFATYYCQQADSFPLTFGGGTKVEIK : 0.81
VH6/Vk0 (antibody, IgG1, V domains shown, Full IgG1/kappa expressed in HEK 293 EBNA cells) VH: QVQLVQSGAEVKKPGSSVKVSCKASGYSFPTHWITWVRQAPGQGLEWMGTIDPTDSYNFYGPSFQGRVTITADKSTSTAYMELSSLRSEDTAVYYCARDGNYYDSRGYYYDTFDMWGQGTLVTVSS VL: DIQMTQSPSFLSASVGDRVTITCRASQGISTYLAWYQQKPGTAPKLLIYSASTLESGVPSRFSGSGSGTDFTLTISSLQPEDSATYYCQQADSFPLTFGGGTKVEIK : 0.8

Alright, here's another binder for you.
// query // returns reported Relative KD to VMDO2 VH0/Vk0 for input VH2/Vk2 (antibody, IgG1, V domains shown, Full IgG1/kappa expressed in HEK 293 EBNA cells) VH: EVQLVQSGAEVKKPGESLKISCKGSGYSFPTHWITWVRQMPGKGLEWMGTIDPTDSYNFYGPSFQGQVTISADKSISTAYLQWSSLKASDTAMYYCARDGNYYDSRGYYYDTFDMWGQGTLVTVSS VL: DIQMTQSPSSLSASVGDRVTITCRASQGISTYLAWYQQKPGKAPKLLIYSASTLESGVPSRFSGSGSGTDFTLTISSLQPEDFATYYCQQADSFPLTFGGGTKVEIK
// result 0.97

Values from patent US20210403576A1
